- target or system: T1, CD25 (R&D systems cat. #223-2A/CF) (UniProt P01589 22-213, limits assumed)
- T1 construct: Bought soluble protein
- T1 sequence (looked up): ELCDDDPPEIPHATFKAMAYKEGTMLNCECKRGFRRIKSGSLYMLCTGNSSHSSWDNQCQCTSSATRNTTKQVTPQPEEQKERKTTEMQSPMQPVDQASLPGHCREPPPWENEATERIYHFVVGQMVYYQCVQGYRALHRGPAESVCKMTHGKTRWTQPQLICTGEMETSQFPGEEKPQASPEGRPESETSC
- assay procedure: Biacore (SPR); antibody captured on Protein A, CD25 injected
quantity: Kd (nM)
The reply should contain only the number, in nM.

Use these answered entries as a reference point.
>  <binder>
anti-CD25 H1L1.20 (antibody, V domains shown, also called VL combination variant L1.20 paired with H1) VH: QVQLVQSGAEVKKPGASVKVSCKASGYTFTSYRMHWVRQAPGQGLEWMGYINPSTGYTEYNQKFQGRVTITADKSISTAYMELSRLRSDDTAVYYCARGGGVFDYWGQGTLVTVSS VL: EIVLTQSPATLSLSPGERATLSCRASQSVSYLHWYQQKPGQAPRLLIYTTSNRATGIPARFSGSGSGTDFTLTISSLEPEDFAVYYCHQRSTYPLTFGSGTKLEIK

>  <quantity>
Kd

>  <data value>
1.1

$$$$
>  <binder>
anti-CD25 H1.22L1.56 (antibody, V domains shown) VH: QVQLVQSGAEVKKPGASVKVSCKASGYTFTSYRMHWVRQAPGQGLEWMGWINPNSGGTNYAQKFQGRVTITRDTSISTAYMELSRLRSDDTAVYYCARGGGVFDYWGQGTLVTVSS VL: QIVLTQSPATLSLSPGERATLSCRASQSVSYLHWFQQKPGQSPQLLIYTTSNRATGIPARFSGSGSGTDFTLTISSLEPEDFAVYYCHQRSTYPLTFGSGTKLEIK

>  <quantity>
Kd

>  <data value>
0.22

$$$$

Below: the item to evaluate.
Problem: Form field: reported Kd of anti-CD25 H1L1.48 (antibody, V domains shown, also called VL combination variant L1.48 paired with H1) VH: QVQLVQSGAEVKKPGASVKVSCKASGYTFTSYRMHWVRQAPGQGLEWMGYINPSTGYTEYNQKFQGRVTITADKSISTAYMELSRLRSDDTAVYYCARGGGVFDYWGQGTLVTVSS VL: EIVLTQSPATLSLSPGERATLSCRASQSVSYMHWYQQKPGQAPRLLIYTTSNRATGIPARFSGSGSGTDFTLTISSLEPEDFAVYYCHQRSTYPLTFGSGTKLEIK
Result: 0.63
